primary growth inhibitory screen, cell viability, MCF-7 by entry:
- Test system: MCF-7 cells
- assay-name: MTT cytotoxicity assay on MCF-7 cells
- Type: cell-based
- assay-setup: 2.5 µM, 72 h, mean±SD, untreated control about 100
outcome-measure: primary growth inhibitory screen, cell viability, MCF-7

compound="CC(=O)c1cc2c(cc1O)CCCC2 [Compound 15, 3-Acetyl-5,6,7,8-tetrahydro-2-naphthol]" tested_target="MCF-7 cells" observed="≥ 100±1.9"
compound="Cc1ccc(-n2cc(CO)c(-c3cc4c(cc3O)CCCC4)n2)cc1 [Compound 18b]" tested_target="MCF-7 cells" observed="≥ 100±5.3"
compound="Cc1ccc(-n2cc(CO)c(-c3cc4c(cc3O)CC[C@@H]3[C@@H]4CC[C@]4(C)[C@@H](O)CC[C@@H]34)n2)cc1 [Compound 11b]" tested_target="MCF-7 cells" observed=80.4±2.9
compound="C[C@]12CC[C@@H]3c4cc(-c5nn(-c6ccc(Cl)cc6)cc5C=O)c(O)cc4CC[C@H]3[C@@H]1CC[C@@H]2O [Compound 8c]" tested_target="MCF-7 cells" observed="≥ 100±5.3"
compound="CC(=O)O[C@H]1CC[C@H]2[C@@H]3CCc4cc(O)c(C(C)=O)cc4[C@H]3CC[C@]12C [Compound 4]" tested_target="MCF-7 cells" observed=92.7±2.2
compound="OCc1cn(-c2ccccc2)nc1-c1cc2c(cc1O)CCCC2 [Compound 18a]" tested_target="MCF-7 cells" observed=98.0±7.1
